# assay: Biodistribution of technetium-labelled peptides
# Type: in vivo, CD1 mice
# testParameters: mouse, stomach, 10 ug, total radioactivity; CD1 mice, iv; 5 min; 10 μg; read-out: injected activity in Stomach
# Experimental: To evaluate the capacity to cross the BBB in vivo, the selected peptides, pepH1 and pepH3, were analyzed for biodistribution in CD1 mice. The peptides were labelled with technetium at a final concentration of 8.5×10^−5 M and diluted in PBS. CD1 mice were injected (iv injection, tail vein). […] The tissues of interest were dissected and washed to remove excess blood, weighed, and measured for radioactivity. Technetium radioactivity of the different peptides was measured for different organs. […]
Residues, ends and D or L forms follow the SMILES beside them. *: point of attachment. X1 = Cc1nn(CCN(CCN)CCCC(=O)*)c(C)c1CC(=O)O
outcomeMeasure: tissue uptake at 5 min (%ID/g)
Give bare numbers, in %ID/g.

compound	tissue uptake at 5 min (%ID/g)
Cc1nn(CCN(CCN)CCCC(=O)N[C@H](C(=O)N[C@@H](CCC(N)=O)C(=O)N[C@@H](CCC(N)=O)C(=O)N[C@@H](CC(C)C)C(=O)N[C@H](C(=O)N[C@@H](CCCCN)C(=O)N[C@@H](CCCNC(=N)N)C(=O)N[C@@H](Cc2ccccc2)C(=O)N[C@@H](CO)C(=O)N[C@@H](CC(C)C)C(=O)O)[C@@H](C)O)C(C)C)c(C)c1CC(=O)O [^99mTc(CO)3-Pz^1-pepH1, metal not drawn] (X1-VQQLTKRFSL-OH; C-terminus assumed)	0.7

Sample CC[C@H](C)[C@H](NC(=O)CNC(=O)[C@H](C)NC(=O)CCCN(CCN)CCn1nc(C)c(CC(=O)O)c1C)C(=O)N[C@@H](CC(C)C)C(=O)N[C@@H](CCCCN)C(=O)N[C@@H](CCCNC(=N)N)C(=O)N[C@@H](Cc1c[nH]c2ccccc12)C(=O)O [^99mTc(CO)3-Pz^1-pepH3, metal not drawn] (X1-AGILKRW-OH; C-terminus assumed) ; tissue uptake at 5 min observed: 0.17
